Recorded pIC50 for compounds tested on Tyrosine-protein phosphatase non-receptor type 1 (Homo sapiens), drawn from a number of studies.
MEASURED_TARGET: Tyrosine-protein phosphatase non-receptor type 1 (Homo sapiens)
Sequence (P18031 whole entry): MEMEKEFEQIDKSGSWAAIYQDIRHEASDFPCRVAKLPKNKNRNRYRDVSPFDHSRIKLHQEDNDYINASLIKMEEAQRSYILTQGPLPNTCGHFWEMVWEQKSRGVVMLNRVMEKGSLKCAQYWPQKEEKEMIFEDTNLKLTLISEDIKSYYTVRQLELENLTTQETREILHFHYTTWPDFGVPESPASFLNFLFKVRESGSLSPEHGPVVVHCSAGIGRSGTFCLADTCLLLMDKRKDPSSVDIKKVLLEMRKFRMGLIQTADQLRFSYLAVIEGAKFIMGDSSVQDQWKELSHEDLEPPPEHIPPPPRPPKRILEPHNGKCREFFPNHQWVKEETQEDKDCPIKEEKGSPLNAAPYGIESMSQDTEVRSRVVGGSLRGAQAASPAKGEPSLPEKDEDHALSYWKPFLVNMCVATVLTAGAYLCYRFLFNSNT
Scale explanation: pIC50 corresponds to minus log10 of a concentration expressed in moles per litre.

QUERY: Need pIC50, item O=C1NC(=O)/C(=C\c2ccc(C(=O)Nc3nnc(SCc4ccc(Cl)cc4)s3)cc2)S1
RESULT: 5.86

QUERY: // lookup pIC50 for N#Cc1cccc(CSc2nnc(NC(=O)c3ccc(/C=C4/SC(=O)NC4=O)cc3)s2)c1
RESULT: 6.21

QUERY: # lookup: pIC50 of O=C1NC(=O)/C(=C\c2ccc(C(=O)Nc3nnc(SCc4ccccc4C(F)(F)F)s3)cc2)S1
RESULT: 5.93

QUERY: Requested read-out: pIC50. Entry: O=C1NC(=O)/C(=C/c2ccc(C(=O)Nc3nnc(SCc4cc(C(F)(F)F)cc(C(F)(F)F)c4)s3)cc2)S1
RESULT: 5.76

QUERY: Quick check: pIC50 of O=C(O)c1ccc(-c2ccc(/C=C3\C(=O)c4cccc([N+](=O)[O-])c4C3=O)o2)c(Cl)c1 ?
RESULT: 5.05

QUERY: Any idea what pIC50 was measured for Oc1ccc(-c2c(O)c(O)c(-c3ccc(O)cc3)c3scnc23)cc1 ?
RESULT: 4.09

QUERY: Item O=C1NC(=O)/C(=C\c2ccc(C(=O)Nc3nnc(SCc4ccccc4OC(F)(F)F)s3)cc2)S1 has what recorded pIC50?
RESULT: 5.88
